Listed next: entries and their corresponding Papp.
# assayText: Caco-2 permeability assay (CacoReady kit)
# Format: in vitro ADME
# recordedConditions: human, Caco-2, Caco-2 barrier, CacoReady kit; above 1×10^−6 cm/s classified as permeable

>  <molecule>
CNC(=O)C(=O)CC[C@H](NC(=O)c1c(I)cnn1C)C(=O)Nc1cccn(CC(=O)NC2C3CC4CC(C3)CC2C4)c1=O (some centres unmarked)

>  <Papp>
< 1 ×10⁻⁶ cm/s

$$$$
>  <molecule>
CNC(=O)C(=O)CC[C@H](NC(=O)c1oc2ccccc2c1C)C(=O)Nc1cccn(CC(=O)N[C@H]2C[C@H]3CC[C@@H]2C3)c1=O

>  <Papp>
< 1 ×10⁻⁶ cm/s

$$$$
>  <molecule>
CNC(=O)C(=O)CC[C@H](NC(=O)c1ccnn1C)C(=O)Nc1cccn(CC(=O)N[C@H]2C[C@H]3CC[C@]2(C)C3(C)C)c1=O

>  <Papp>
< 1 ×10⁻⁶ cm/s

$$$$
>  <molecule>
CNC(=O)C(=O)CC[C@H](NC(=O)c1c(C)noc1C)C(=O)Nc1cccn(CC(=O)NC2C3CCCC2CC3)c1=O (some centres unmarked)

>  <Papp>
1 to 10 ×10⁻⁶ cm/s

$$$$
>  <molecule>
CNC(=O)C(=O)CC[C@H](NC(=O)C1Cc2ccccc2C1)C(=O)Nc1cccn(CC(=O)NC2C3CC4CC(C3)CC2C4)c1=O (some centres unmarked)

>  <Papp>
1 to 10 ×10⁻⁶ cm/s

$$$$
>  <molecule>
CNC(=O)C(=O)CC[C@H](NC(=O)c1cc(C#N)cn1C)C(=O)Nc1cccn(CCCC23CC4CC(CC(C4)C2)C3)c1=O

>  <Papp>
1 to 10 ×10⁻⁶ cm/s

$$$$
>  <molecule>
CNC(=O)C(=O)CC[C@H](NC(=O)c1cc2ccccc2o1)C(=O)Nc1cccn(CC(=O)NC(C)C23CC4CC(CC(C4)C2)C3)c1=O (some centres unmarked)

>  <Papp>
< 1 ×10⁻⁶ cm/s

$$$$
>  <molecule>
CNC(=O)C(=O)CC[C@H](NC(=O)c1ccc2c(c1)CCCN2)C(=O)Nc1cccn(CC(=O)NC23CCC(C2)C3)c1=O

>  <Papp>
< 1 ×10⁻⁶ cm/s

$$$$
>  <molecule>
CNC(=O)C(=O)CC[C@H](NC(=O)c1nc(Br)sc1C)C(=O)Nc1cccn(CC(=O)NC2C3CC4CC(C3)CC2C4)c1=O (some centres unmarked)

>  <Papp>
> 10 ×10⁻⁶ cm/s

$$$$
>  <molecule>
CNC(=O)C(=O)CC[C@H](NC(=O)c1sc(Br)c(Br)c1OC)C(=O)Nc1cccn(CC(=O)NC2C3CC4CC(C3)CC2C4)c1=O (some centres unmarked)

>  <Papp>
< 1 ×10⁻⁶ cm/s

$$$$
>  <molecule>
CNC(=O)C(=O)CC[C@H](NC(=O)c1sc(Cl)nc1Cl)C(=O)Nc1cccn(CC(=O)NC2C3CC4CC(C3)CC2C4)c1=O (some centres unmarked)

>  <Papp>
1 to 10 ×10⁻⁶ cm/s

$$$$
